System: ACHN renal
test.description: NCI tumour cell line growth inhibition, 48 h
Answer each item with its documented GI50.

Problem: State GI50 (ACHN renal) of O=C(O)CCCCCNCc1cc2cc3c(cc2c2cc(OCc4ccccc4)ccc12)OCO3 .
Result: 3480 nM

Problem: Please report GI50 with ACHN renal for item COc1cc(/C=N/NC(=O)c2cnn3c2NC(c2ccccc2)C3)ccc1OCc1ccccc1 (stereo not drawn) .
Result: 903 nM

Problem: Write down the reported GI50 (system: ACHN renal) of CN1CCN(Cc2ccc(NC(=O)c3cncc(C#Cc4c(N)ncc5ccccc45)c3)cc2C(F)(F)F)CC1
Result: 569 nM

* * *

Test system: HOP-92 NSCLC
test.description: NCI tumour cell line growth inhibition, 48 h
Provide the reported TGI of each item.

Problem: Given the compound CC(C)=CC(=O)c1[nH]c2ccccc2c1CC(=O)NCCc1cnc[nH]1 , write its reported TGI.
Result: > 100 µM

Problem: Answer with reported TGI of O=C(Nc1c[nH]c(=O)[nH]c1=O)Oc1ccccc1
Result: > 100 µM

Problem: Indicate its recorded TGI; the compound in question is CCn1c(=O)nc2n(-c3ccc(SC)cc3)c3ccccc3nc-2c1=O
Result: > 100 µM

Problem: Give TGI for CNC(=O)c1sc(-n2cnc3cc(OC)c(OC)cc32)cc1OCc1ccccc1C(F)(F)F
Result: > 25 µM

Problem: Fill in reported TGI for this entry: CC(=O)OC1(C(C)=O)CC2(c3ccccc3)OC1(c1ccccc1)c1ccccc12 (stereo unspecified)
Result: > 100 µM

Problem: Quick one: give measured TGI for Nc1nc(N)c(CCCCc2ccc([N+](=O)[O-])cc2)c(N)n1
Result: > 100 µM

* * *

Assignment: determine reported TGI for the given compounds.
Tested on: CAKI-1 renal
test.description: NCI tumour cell line growth inhibition, 48 h

Problem: Look up and report measured TGI for this entry: Oc1ccccc1/C=N\NC(=S)Nc1ccc(F)cc1
Result: > 24.3 µM

Problem: State its TGI for this compound: CCOC(=O)C(=O)CC(=O)C(Br)C(Br)c1ccc(Cl)cc1 (centres undefined)
Result: > 100 µM

Problem: Give a short answer stating reported TGI for O=C(c1ccccc1)c1nn(-c2cccc(Cl)c2)c2nc3nc(-c4ccccc4)cc(=O)n3nc12 .
Result: > 25 µM

Problem: Identify the reported TGI for the following entry. CCOC(=O)c1c(NS(=O)(=O)c2ccccc2)sc2c1CCCC2
Result: > 100 µM

* * *

Test system: HL-60(TB) leukemia
test.description: NCI tumour cell line growth inhibition, 48 h
measured.property: TGI (µM)
# output: bare number, implied unit µM

Problem: Look up TGI of Nc1nc(SCC#CCCl)c2[nH]cnc2n1 and report it.
Result: 6.61

Problem: Query TGI for CC(=O)O[C@H]1CSC[C@@H](OC(C)=O)C1[N+](=O)[O-] (stereo not given in full)
Result: 54.6

Problem: Report measured TGI; entry is O=C1c2ccccc2C(=O)c2c1ccc1c3ccccc3n(-c3ccccc3)c21
Result: 8.47

Problem: Hello, please tell me recorded TGI for this one: CC/C(=C/c1ccc(OC)cc1)[N+](=O)[O-]
Result: 5.47

* * *

System: COLO 205 colon
test.description: NCI tumour cell line growth inhibition, 48 h
Rule: TGI of 3 µM or more gives Y; anything lower gives N.

Problem: Item O=[N+]([O-])c1ccc(N=P(c2ccccc2)(c2ccccc2)c2ccccc2)n2nnnc12 with TGI of 3 µM or above?
Result: Y

Problem: Confirm if TGI reported for the molecule Cc1ccc2nc(CN(CCN(Cc3nc4ccc(C)cc4[nH]3)Cc3nc4ccc(C)cc4[nH]3)Cc3nc4ccc(C)cc4[nH]3)[nH]c2c1 is 3 µM or above.
Result: Y

Problem: For this molecule, is measured TGI 3 µM or higher? CC(C)C1OC(=O)C(Cc2ccccc2)N(C)C(=O)C(C(C)C)OC(=O)C(Cc2ccccc2)N(C)C(=O)C(C(C)C)OC(=O)C(Cc2ccccc2)N(C)C1=O (stereo not drawn)
Result: N

Problem: Check this molecule for TGI at or above 3 µM: COc1cccc(C2c3cc4c(cc3OC(NNS(=O)(=O)c3ccc(C)cc3)C2C)OCO4)c1O (stereo not drawn)
Result: Y

Problem: Please check the record COc1ccc2c(Cl)cc(NC(=S)Nc3ccccc3)nc2c1 and state if its TGI is at or above 3 µM.
Result: Y

Problem: State whether the measured TGI reaches 3 µM, counting equality as reaching it, for CO[C@H]1C[C@H](O[C@H]2CC[C@@]3(C)[C@H](CC[C@@H]4[C@@H]3CC[C@]3(C)[C@@H](C5=CC(=O)OC5)CC[C@]43O)C2)O[C@H](C)[C@H]1O
Result: N

Problem: For this molecule, is measured TGI 3 µM or higher? C(=C\c1ccc2ccccc2c1Nc1ccccc1)/c1ccccc1
Result: Y

Problem: Textbook exercise: given the entry Clc1ccc(Cc2nc3cc(Cl)c(Cl)cc3n2CC2CCCN3CCCCC23)cc1 (stereo not drawn) , state whether its TGI is greater than or equal to 3 µM.
Result: Y
